- study system: UniProtKB Q07817
- Sequence (Q07817 whole entry): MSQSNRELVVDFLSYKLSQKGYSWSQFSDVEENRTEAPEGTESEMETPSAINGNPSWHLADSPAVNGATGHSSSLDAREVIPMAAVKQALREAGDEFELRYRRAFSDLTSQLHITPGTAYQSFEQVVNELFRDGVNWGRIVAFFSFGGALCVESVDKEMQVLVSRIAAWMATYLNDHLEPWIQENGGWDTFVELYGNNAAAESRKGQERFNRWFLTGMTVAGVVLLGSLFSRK
- protocol notes: TR-FRET binding assay, GST-Bcl-XL with F-Bak peptide probe
- details: TR-FRET Binding Affinity
Entries annotated with measured pKi
Remember, pKi is on a log scale: it is -log10 of the molar concentration.

See these solved cases before continuing.
>  <compound>
CC1(C)CCC(CN2CCN(c3ccc(C(=O)NS(=O)(=O)c4cnc(NC5CCN(C6CC6)CC5)c(Cl)c4)c(Oc4cccc5[nH]cnc45)c3)CC2)=C(c2ccc(Cl)cc2)C1

>  <pKi>
7.75

$$$$
>  <compound>
CC1(C)CCC(CN2CCN(c3ccc(C(=O)NS(=O)(=O)c4ccc(NCC5CN(S(C)(=O)=O)CCO5)c([N+](=O)[O-])c4)c(Oc4cccc5[nH]cnc45)c3)CC2)=C(c2ccc(Cl)cc2)C1 (centres unmarked)

>  <pKi>
8.62

$$$$

**Query** May I ask what pKi has been recorded for "CC1(C)CCC(CN2CCN(c3ccc(C(=O)NS(=O)(=O)c4cnc(OCC5(F)CCOCC5)c(Cl)c4)c(Oc4cccc5[nH]nnc45)c3)CC2)=C(c2ccc(Cl)cc2)C1" ?
**Result** 6.85

**Query** May I ask what pKi has been recorded for "CC1(C)CCC(CN2CCN(c3ccc(C(=O)NS(=O)(=O)c4cnc(OCC5CCOCC5)c(Cl)c4)c(Oc4cccc5[nH]cnc45)c3)CC2)=C(c2ccc(Cl)cc2)C1" ?
**Result** 6.83

**Query** May I ask what pKi has been recorded for "CC1(C)CCC(CN2CCN(c3ccc(C(=O)NS(=O)(=O)c4ccc(OCC5(F)CCOCC5)c(Cl)c4)c(Oc4cccc5[nH]cnc45)c3)CC2)=C(c2ccc(Cl)cc2)C1" ?
**Result** 6.98

---

- study system: GST-Bcl-2 (Homo sapiens, UniProt P10415)
- Sequence (P10415 whole entry): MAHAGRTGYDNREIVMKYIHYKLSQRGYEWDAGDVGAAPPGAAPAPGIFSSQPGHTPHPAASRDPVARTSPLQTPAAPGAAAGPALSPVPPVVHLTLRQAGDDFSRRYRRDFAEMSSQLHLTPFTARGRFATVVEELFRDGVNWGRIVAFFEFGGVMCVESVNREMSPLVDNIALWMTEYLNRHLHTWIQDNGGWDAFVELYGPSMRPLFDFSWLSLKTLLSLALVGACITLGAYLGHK
- protocol notes: TR-FRET binding assay, GST-Bcl-2 with F-Bak peptide probe
- details: TR-FRET Binding Affinity
pKi: −log10 of the molar value.
// rule not met strictly below 10 in pKi; rule met otherwise

Solved entries:
>  <compound>
CC1(C)CCC(CN2CCN(c3ccc(C(=O)NS(=O)(=O)c4cnc(OCC5CCC(F)(F)CC5)c(Cl)c4)c(Oc4cccc5[nH]cnc45)c3)CC2)=C(c2ccc(Cl)cc2)C1 [Example 463]

>  <study system>
GST-Bcl-2 (Homo sapiens, UniProt P10415)

>  <label class>
rule met

$$$$
>  <compound>
CC1(C)CCC(CN2CCN(c3ccc(C(=O)NS(=O)(=O)c4cnc(NC5CCN(C6CC6)CC5)c(Cl)c4)c(Oc4cccc5[nH]cnc45)c3)CC2)=C(c2ccc(Cl)cc2)C1 [Example 449]

>  <study system>
GST-Bcl-2 (Homo sapiens, UniProt P10415)

>  <label class>
rule not met

$$$$
>  <compound>
CC1(C)CCC(CN2CCN(c3ccc(C(=O)NS(=O)(=O)c4cnc(OC[C@H]5CC[C@H](C#N)CC5)c(Cl)c4)c(Oc4cccc5[nH]ncc45)c3)CC2)=C(c2ccc(Cl)cc2)C1 [Example 492]

>  <study system>
GST-Bcl-2 (Homo sapiens, UniProt P10415)

>  <label class>
rule met

$$$$
>  <compound>
CC1(C)CCC(CN2CCN(c3ccc(C(=O)NS(=O)(=O)c4cnc(OC[C@H]5CC[C@H](C(N)=O)CC5)c(Cl)c4)c(Oc4cccc5[nH]ncc45)c3)CC2)=C(c2ccc(Cl)cc2)C1 [Example 483]

>  <study system>
GST-Bcl-2 (Homo sapiens, UniProt P10415)

>  <label class>
rule met

$$$$
>  <compound>
CC1(C)CCC(CN2CCN(c3ccc(C(=O)NS(=O)(=O)c4ccc(OCC5COCCO5)c(Cl)c4)c(Oc4cccc5[nH]ncc45)c3)CC2)=C(c2ccc(Cl)cc2)C1 (stereo not shown) [Example 502]

>  <study system>
GST-Bcl-2 (Homo sapiens, UniProt P10415)

>  <label class>
rule met

$$$$
>  <compound>
CC1(C)CCC(CN2CCN(c3ccc(C(=O)NS(=O)(=O)c4ccc(OCC5(F)CCOCC5)c(C#N)c4)c(Oc4cccc5[nH]ncc45)c3)CC2)=C(c2ccc(Cl)cc2)C1 [Example 501]

>  <study system>
GST-Bcl-2 (Homo sapiens, UniProt P10415)

>  <label class>
rule met

$$$$

**Query** Given the entry CC1(C)CCC(CN2CCN(c3ccc(C(=O)NS(=O)(=O)c4cnc(OCC5(F)CCC(C)(O)CC5)c(Cl)c4)c(Oc4cccc5[nH]ncc45)c3)CC2)=C(c2ccc(Cl)cc2)C1 (stereo not shown) [Example 512] , answer whether its pKi meets or surpasses 10.
**Result** rule met

**Query** Given the entry CN(C)CC(=O)N1CCO[C@H](CNc2ccc(S(=O)(=O)NC(=O)c3ccc(N4CCN(CC5=C(c6ccc(Cl)cc6)CC(C)(C)CC5)CC4)cc3Oc3cccc4[nH]cnc34)cc2[N+](=O)[O-])C1 [Example 437] , answer whether its pKi meets or surpasses 10.
**Result** rule met

**Query** Given the entry CC1(C)CCC(CN2CCN(c3ccc(C(=O)NS(=O)(=O)c4cnc(OCC5CCc6nccn6C5)c(Cl)c4)c(Oc4cccc5[nH]ncc45)c3)CC2)=C(c2ccc(Cl)cc2)C1 (stereo not shown) [Example 536] , answer whether its pKi meets or surpasses 10.
**Result** rule met

**Query** Given the entry O=C(NS(=O)(=O)c1ccc(NCCCN2CCOCC2)c([N+](=O)[O-])c1)c1ccc(N2CCN(Cc3ccccc3N3CC4CCC(CC4)C3)CC2)cc1Oc1ccccc1 [Example 477] , answer whether its pKi meets or surpasses 10.
**Result** rule not met
